Entry source: patent US20040102454A1

tested on: HBC-5; experiment: HCC panel assay, sulforhodamine B; assay type: cell-based; conditions: Homo sapiens, HBC5; HBC-5, Breast; (−)-PLH content 24.1%; read-out: GL50 (the source's name)
reported.property: IC50 (µM)
Numbers only, in µM.

*Q* State measured IC50 of the molecule C=CC(C)(C)c1[nH]cnc1/C=C1\NC(=O)[C@H](Cc2ccccc2)NC1=O (racemic) [PLH, phenylahistin] with HBC-5.
*A* 0.6

---

system: Jurkat cells
reported.property: pIC50
One number for each entry, as −log10 of the molar value.

*Q* System Jurkat cells. Read-out pIC50. Item `CC(C)(C)c1[nH]cnc1/C=C1\NC(=O)[C@H](Cc2ccccc2)NC1=O` . Report value.
*A* 6.78
